I'd appreciate it if you could supply PBM binding z-score values for the items below.
Tested on: THRa homodimer (NR concentration 90 nM)
testMethodNotes: PBM binding z-score (relative to random genomic background probes); higher = stronger binding; sequences stand for … in GC…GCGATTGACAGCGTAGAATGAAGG
Would you mind answering with just the numeric figure?

input: For THRa homodimer (NR concentration 90 nM), provide PBM binding z-score of "CCTTACGGGTCACTGCAGGTTATAGCATCGGAGT" please.
output: 0.184

input: Repeat for the following sequence: "TATACAGGGTAAAAGGCCAGAGTACGAATGTCGA"
output: -0.663

input: Repeat for the following sequence: "TCTGCTAGGTCAACGATGGTCAGCTCATCTGCTA"
output: 0.671

input: Repeat for the following sequence: "ATAATGAGGTTATTAAGATCAGGGAATTGCGGTC"
output: 0.964

input: Repeat for the following sequence: "GCGACTGGGGCATCAGCAGGTTACCCTAACTTAA"
output: 0.628

input: Repeat for the following sequence: "CCTACTGGGCCACGAAAGGTCATTGTTTCAGTGA"
output: 0.739

input: Repeat for the following sequence: "ATCTCTAGGTACCAAGTTCAGTGAAAGAGAGGAC"
output: 0.692

input: Repeat for the following sequence: "CGAACTAGGTCATTGACAGGACAGTGACTAGTAA"
output: 0.58

input: Repeat for the following sequence: "ATCTCTAGGTAAAAGTTAAGTGAATCCCGAGGAT"
output: -0.106

input: Repeat for the following sequence: "GCTATTAGTTGAAAGAGCAACCGAATGATTCTCG"
output: -0.896

input: Repeat for the following sequence: "CCTACTGGGCCATCAGGTCATTCATATCAACGTT"
output: 3.02
